# credit: paper PMC9120017

target: mouse TMEM16A mutant I516A (Mus musculus, UniProt Q8BHY3, I516A); construct: expressed in transfected cells; host or cells: HEK293T; experiment: Inside-out patch recording of 1PBC block, mutant I516A; format: cell-based; conditions: 140 mV; 2 µM Ca2+
ENDPOINT_NAME: pIC50
Notebook: values listed as pIC50 are -log10 of the concentration (mol/L).

Request: Param readout = pIC50; param system = mouse TMEM16A mutant I516A (Mus musculus, UniProt Q8BHY3, I516A); param query = N#Cc1c(C(F)(F)F)cc(O)n2c1nc1ccccc12 ; response: value
Result: 5.27

====

target: mouse TMEM16A mutant R515A (Mus musculus, UniProt Q8BHY3, R515A); construct: expressed in transfected cells; host or cells: HEK293T; assay: Inside-out patch recording of 1PBC block, mutant R515A; format: cell-based; settings: R515A; V -40 mV
ENDPOINT_NAME: IC50 (µM)
Please state the figure in µM; there is no need to write the unit.

Request: Data request, read-out IC50, for N#Cc1c(C(F)(F)F)cc(O)n2c1nc1ccccc12 [1PBC]
Result: 145

====

Biological target: mouse TMEM16A mutant G558P (Mus musculus, UniProt Q8BHY3, G558P)
Construct: expressed in transfected cells; host or cells: HEK293T
Sequence (Q8BHY3 1-960 G558P): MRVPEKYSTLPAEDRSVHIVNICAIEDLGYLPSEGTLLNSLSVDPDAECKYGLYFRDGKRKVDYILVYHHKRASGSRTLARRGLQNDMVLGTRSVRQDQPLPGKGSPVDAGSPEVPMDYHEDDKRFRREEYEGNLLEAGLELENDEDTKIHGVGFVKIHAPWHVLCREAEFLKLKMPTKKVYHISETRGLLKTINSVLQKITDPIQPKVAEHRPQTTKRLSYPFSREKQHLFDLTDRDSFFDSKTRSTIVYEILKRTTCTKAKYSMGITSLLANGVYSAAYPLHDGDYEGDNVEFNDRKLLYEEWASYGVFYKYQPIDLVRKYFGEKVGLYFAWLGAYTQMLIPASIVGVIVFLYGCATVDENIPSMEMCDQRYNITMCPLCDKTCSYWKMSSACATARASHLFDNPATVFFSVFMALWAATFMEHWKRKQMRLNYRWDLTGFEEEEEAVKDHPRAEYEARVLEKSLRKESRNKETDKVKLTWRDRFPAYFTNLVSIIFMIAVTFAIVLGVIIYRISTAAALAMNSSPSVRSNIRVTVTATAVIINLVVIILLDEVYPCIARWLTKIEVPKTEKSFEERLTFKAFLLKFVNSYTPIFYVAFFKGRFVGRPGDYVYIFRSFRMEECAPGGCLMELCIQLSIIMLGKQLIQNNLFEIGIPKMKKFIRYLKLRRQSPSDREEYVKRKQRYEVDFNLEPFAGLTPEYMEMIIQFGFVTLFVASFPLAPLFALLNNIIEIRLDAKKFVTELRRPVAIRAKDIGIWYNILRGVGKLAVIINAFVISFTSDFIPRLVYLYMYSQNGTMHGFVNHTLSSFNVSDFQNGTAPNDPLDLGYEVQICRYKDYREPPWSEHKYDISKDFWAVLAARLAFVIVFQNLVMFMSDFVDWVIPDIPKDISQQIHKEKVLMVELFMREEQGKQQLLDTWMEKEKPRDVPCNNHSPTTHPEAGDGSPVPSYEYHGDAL
Experiment: Inside-out patch recording of 1PBC block, mutant G558P
Assay type: cell-based
Conditions: G558P; V 40 mV
ENDPOINT_NAME: IC50 (µM)
Please state the figure in µM; there is no need to write the unit.

Request: Data request, read-out IC50, for N#Cc1c(C(F)(F)F)cc(O)n2c1nc1ccccc12 [1PBC]
Result: 3.94
